tested target: hGK (Homo sapiens, UniProt P35557)
Sequence (P35557 1-465): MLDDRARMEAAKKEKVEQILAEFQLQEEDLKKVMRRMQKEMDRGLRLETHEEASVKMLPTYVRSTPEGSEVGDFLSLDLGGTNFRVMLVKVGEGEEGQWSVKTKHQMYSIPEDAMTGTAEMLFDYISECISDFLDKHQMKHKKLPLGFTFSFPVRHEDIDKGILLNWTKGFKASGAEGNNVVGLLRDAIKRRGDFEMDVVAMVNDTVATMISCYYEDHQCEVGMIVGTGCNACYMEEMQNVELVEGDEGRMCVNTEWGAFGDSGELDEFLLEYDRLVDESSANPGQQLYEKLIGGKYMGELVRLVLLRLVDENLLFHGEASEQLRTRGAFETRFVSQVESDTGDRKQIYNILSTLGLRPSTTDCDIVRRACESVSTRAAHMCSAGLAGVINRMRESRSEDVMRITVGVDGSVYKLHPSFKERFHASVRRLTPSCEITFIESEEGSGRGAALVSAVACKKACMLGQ
assay notes: Glucokinase Activation Screening Assay (coupled enzyme assay with PK/LDH)
Assay type: biochemical
assay conditions: fold activation at 30 μM compound, 2 mM glucose
value kind: hGK fold activation at 30 μM
No unit in the answer, please; the number alone is enough.

Note hGK fold activation at 30 μM for the compound shown: CCCc1cc(C(=O)Nc2cc[nH]n2)cs1 [Example 38] 2.7

Note hGK fold activation at 30 μM for the compound shown: O=C(Nc1nccs1)c1csc2c1CCCC2 [Example 7] 1.2

Note hGK fold activation at 30 μM for the compound shown: O=C(Nc1nccs1)c1ccsc1 [Example 2] 1.3

Note hGK fold activation at 30 μM for the compound shown: CCCc1cc(C(=O)Nc2cc(C)ccn2)cs1 [Example 39] 2.4

Note hGK fold activation at 30 μM for the compound shown: CCCc1cc(C(=O)Nc2nc(C(=O)OCC)cs2)cs1 [Example 12] 2.6

Note hGK fold activation at 30 μM for the compound shown: O=C(Nc1nccs1)c1csc2ccccc12 [Example 6] 1.2

Note hGK fold activation at 30 μM for the compound shown: CCCc1cc(C(=O)Nc2nc(CC(=O)OCC)cs2)cs1 [Example 11] 4.9

Note hGK fold activation at 30 μM for the compound shown: CCCc1cc(C(=O)Nc2ccc(F)cn2)cs1 [Example 27] 2.1

Note hGK fold activation at 30 μM for the compound shown: CS(=O)(=O)c1cc(C(=O)Nc2nccs2)sc1Cl [Example 5] 1.9

Note hGK fold activation at 30 μM for the compound shown: CS(=O)(=O)c1csc(C(=O)Nc2nccs2)c1Cl [Example 18] 1.2

Note hGK fold activation at 30 μM for the compound shown: CCN(CC)S(=O)(=O)c1cc(C(=O)Nc2nccs2)sc1C [Example 48] 6.4

Note hGK fold activation at 30 μM for the compound shown: CCCc1cc(C(=O)Nc2nccs2)cs1 [Example 53] 5.6

Note hGK fold activation at 30 μM for the compound shown: COCc1csc(C(=O)Nc2ccn(Cc3ccccn3)n2)c1 [Example 15] 3

Note hGK fold activation at 30 μM for the compound shown: O=C(Nc1nccs1)c1csc([N+](=O)[O-])c1 [Example 20] 1.4

Note hGK fold activation at 30 μM for the compound shown: O=C(Nc1nccs1)c1cc(-c2ccc(Cl)cc2)cs1 [Example 19] 1.5

Note hGK fold activation at 30 μM for the compound shown: Cc1sc(C(=O)Nc2nccs2)cc1S(=O)(=O)NCc1ccccc1 [Example 49] 1.3

Note hGK fold activation at 30 μM for the compound shown: COCc1csc(C(=O)Nc2ccn(CC(=O)O)n2)c1 [Example 44] 1.7

Note hGK fold activation at 30 μM for the compound shown: CCCc1cc(C(=O)Nc2ccccn2)cs1 [Example 41] 2.5

Note hGK fold activation at 30 μM for the compound shown: CCCc1cc(C(=O)Nc2ccn(Cc3ccccn3)n2)cs1 [Example 37] 3.6

Note hGK fold activation at 30 μM for the compound shown: CCCc1cc(C(=O)Nc2ccon2)cs1 [Example 28] 2

Note hGK fold activation at 30 μM for the compound shown: Cc1csc(C(=O)Nc2cc(C)n(Cc3ccccn3)n2)c1 [Example 16] 1.3

Note hGK fold activation at 30 μM for the compound shown: COCc1csc(C(=O)Nc2cc(C)n(Cc3ccccn3)n2)c1 [Example 17] 1.8

====

tested target: hGK (Homo sapiens, UniProt P35557)
assay notes: Glucokinase Activation Screening Assay (coupled enzyme assay with PK/LDH)
assay conditions: 2 mM glucose
pEC50: −log10 of the molar value.
# if value of pEC50 reaches 5, tag TRUE; if it stays below, tag FALSE

Threshold query (pEC50 >= 5) on Cc1sc(C(=O)Nc2nccs2)cc1S(=O)(=O)N(C)C TRUE

Threshold query (pEC50 >= 5) on CCCc1cc(C(=O)Nc2nc(C(=O)OCC)cs2)cs1 TRUE

Threshold query (pEC50 >= 5) on CCCc1cc(C(=O)Nc2nc(CC(=O)OCC)cs2)cs1 FALSE

Threshold query (pEC50 >= 5) on CCOC(=O)Cn1ccc(NC(=O)c2cc(COC)cs2)n1 TRUE

Threshold query (pEC50 >= 5) on CCN(CC)S(=O)(=O)c1cc(C(=O)Nc2nccs2)sc1C TRUE

Threshold query (pEC50 >= 5) on CS(=O)(=O)c1cc(C(=O)Nc2nccs2)sc1Cl TRUE

====

For each record, write down the corresponding hGK fold activation at 30 μM.
tested target: hGK (Homo sapiens)
Sequence (P35557 1-465): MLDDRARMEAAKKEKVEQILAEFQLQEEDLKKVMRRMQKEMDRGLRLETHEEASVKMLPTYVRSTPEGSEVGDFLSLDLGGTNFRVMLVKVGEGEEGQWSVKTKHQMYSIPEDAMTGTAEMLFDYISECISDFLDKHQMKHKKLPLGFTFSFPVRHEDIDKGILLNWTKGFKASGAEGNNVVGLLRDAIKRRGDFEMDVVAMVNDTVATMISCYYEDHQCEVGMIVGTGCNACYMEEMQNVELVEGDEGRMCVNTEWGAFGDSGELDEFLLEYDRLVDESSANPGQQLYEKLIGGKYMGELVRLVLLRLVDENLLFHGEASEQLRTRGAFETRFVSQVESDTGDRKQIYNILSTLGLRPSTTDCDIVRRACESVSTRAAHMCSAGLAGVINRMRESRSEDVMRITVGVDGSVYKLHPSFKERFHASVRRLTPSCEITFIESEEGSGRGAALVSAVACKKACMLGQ
assay notes: Glucokinase Activation Screening Assay (coupled enzyme assay with PK/LDH)
Format: biochemical
assay conditions: fold activation at 30 μM compound, 2 mM glucose
No unit in the answer, please; the number alone is enough.

Note hGK fold activation at 30 μM for the compound shown: CCCc1cc(C(=O)Nc2nc(C(=O)O)cs2)cs1 3.3

Note hGK fold activation at 30 μM for the compound shown: CC1CCc2c(C(=O)Nc3nccs3)csc2C1 (stereo not shown) 1.6

Note hGK fold activation at 30 μM for the compound shown: O=C(Nc1nccs1)c1cccs1 1.3

Note hGK fold activation at 30 μM for the compound shown: Cc1csc(C(=O)Nc2nccs2)c1 3.4

Note hGK fold activation at 30 μM for the compound shown: CCCc1cc(C(=O)Nc2nc(CC(=O)O)cs2)cs1 2.1

Note hGK fold activation at 30 μM for the compound shown: COCc1csc(C(=O)Nc2cc(C)n(CC(=O)O)n2)c1 1.2

Note hGK fold activation at 30 μM for the compound shown: CCCc1sc(C(=O)Nc2nccs2)cc1CC 9.4

Note hGK fold activation at 30 μM for the compound shown: Cc1sc(C(=O)Nc2nccs2)cc1S(=O)(=O)N(C)C 2.6

Note hGK fold activation at 30 μM for the compound shown: CCCc1cc(C(=O)Nc2ccn(C)n2)cs1 5.5

Note hGK fold activation at 30 μM for the compound shown: CCCc1cc(C(=O)Nc2ccncn2)cs1 2.7

Note hGK fold activation at 30 μM for the compound shown: CCOC(=O)Cn1ccc(NC(=O)c2cc(COC)cs2)n1 2.6

Note hGK fold activation at 30 μM for the compound shown: CCCc1cc(C(=O)Nc2nc(C)cs2)cs1 5.2

Note hGK fold activation at 30 μM for the compound shown: CCCc1cc(C(=O)Nc2nc(C)c(C(=O)OCC)s2)cs1 1.5

Note hGK fold activation at 30 μM for the compound shown: CCCOc1sc(C(=O)Nc2nccs2)cc1S(C)(=O)=O 2.1

Note hGK fold activation at 30 μM for the compound shown: CCCc1cc(C(=O)Nc2ncc[nH]2)cs1 2.1

Note hGK fold activation at 30 μM for the compound shown: CCCc1cc(C(=O)Nc2nc3ccccc3[nH]2)cs1 2.4

Note hGK fold activation at 30 μM for the compound shown: CCCc1cc(C(=O)Nc2nncs2)cs1 2.4

Note hGK fold activation at 30 μM for the compound shown: Cc1ccc(C(=O)Nc2nccs2)s1 1.5

Note hGK fold activation at 30 μM for the compound shown: CCCc1cc(C(=O)Nc2cc(Cl)ccn2)cs1 2.7
